# System: OVCAR-4 ovarian
# test_details: NCI tumour cell line growth inhibition, 48 h
Provide the recorded TGI for the entries that follow.

Dear colleague, could you send me TGI for each of the items below? Thanks.
1. O=[N+]([O-])c1cc([N+](=O)[O-])c(/C=C/c2ccc(Cl)c(Cl)c2)cc1/C=C/c1ccc(Cl)c(Cl)c1
2. CC1(C)CC(=O)C2=C(C1)NC1=C(C2)C(=O)CC(C)(C)C1
3. C/C(=N\NC(=S)N(C)C)c1nc2ncccc2[nH]1
4. Cc1ccc([N+](=O)[O-])cc1S(=O)(=O)Nc1ccc(C2=NOC(c3cccs3)C2)cc1 (stereo not given)

1: > 100 µM; 2: > 100 µM; 3: 10.6 µM; 4: 32.3 µM

Below are some compounds; for each one, tell me its TGI.
1. COC(=O)C(C)(C)[C@@H]1OC(=O)N(S(=O)(=O)c2c(C)cc(C)cc2C)[C@H]1C(C)C
2. CC1(C)C2CC(O)C1CCC2=O (stereo not given)
3. COc1cc2c(c(OC)c1OC)-c1ccc(OC)c(=O)cc1[C@@H](NC(C)=O)CC2
4. N#Cc1c(N2CCOCC2)nc(=S)[nH]c1-c1ccccc1
5. Clc1ccc(Nc2ccnc(N3CCN(c4ccnc5cc(Cl)ccc45)CC3)n2)cc1

["> 100 µM", "> 100 µM", "> 100 µM", "> 100 µM", "> 100 µM"]

Tell me the measured TGI of CN(C)CCCNc1ncnc2c1ncn2C1OC(CO)C(O)C1O (stereo not given) , please.
> 100 µM

---

# System: HS 578T breast
# test_details: NCI tumour cell line growth inhibition, 48 h
measurement_label: TGI (µM)
Numbers only, in µM.

Example molecules with recorded TGI:
CN1CCC2(CC1)NC(=O)c1c(c3ccc(Cl)c(Cl)c3n1C)C2C#N (centres undefined); 45.6
C/C(=N\NC(=S)N(C)C)c1nc2ncccc2[nH]1; 7.85
COc1cc(-c2oc3c(OC)cc(OC)c(O)c3c(=O)c2OC)cc(OC)c1OC; 8.21

--- query ---
Report TGI for C[C@]12CC[C@@H]3c4cc(OC(F)F)c(OS(N)(=O)=O)cc4CC[C@H]3[C@@H]1CC[C@@H]2OS(N)(=O)=O please.
16.1

---

# Tested on: MOLT-4 leukemia
# test_details: NCI tumour cell line growth inhibition, 48 h
For each of the compounds below, state its TGI.

Would you please look over these solved cases?
CC(C)C(=O)CC(c1ccc(Cl)cc1)N1N=C(C(C)C)CC1c1ccc(Cl)cc1 (centres undefined); 83.4 µM
CCC(O)C1Cc2c(C)cc3c(c2O1)C(=O)c1ccccc1C3=O (centres undefined); > 100 µM
O=C(O)c1cc2c(cc1CC(Cc1ccc3c(c1)CCCC3)C(=O)O)CCCC2 (centres undefined); > 100 µM
Clc1ccc(C(Cc2cccc(Cl)c2)c2c(Cl)nc(N3CCNCC3)nc2Cl)cc1 (centres undefined); 24.6 µM
C[C@@H](NC(=O)/C(C#N)=C/c1ccc([N+](=O)[O-])cc1)c1ccccc1; 7.3 µM

# return TGI for each item in the list
1. CC(C)(C)OC(=O)NC(Cc1ccc(O)cn1)C(=O)O (centres undefined)
2. CC(=O)C1Cn2c(=O)c3cc4ccccc4cc3c(=O)n2C=C1C (centres undefined)
3. CC(=O)O[C@@H]1C(=O)N(c2ccccc2)[C@@H]1c1cc2ccccc2c2ccccc12
4. Cc1ccc2c(c1)c(Sc1ccc(C(=O)NO)cc1)c1n2CN(C)CC1

1: > 100 µM; 2: > 100 µM; 3: 56 µM; 4: 6.98 µM

For the 3 compounds below, give their TGI values.
1. CC1(C)CC(=O)C2=C(C1)NC1=C(C2)C(=O)CC(C)(C)C1
2. O=c1[nH]nc(Cc2ccccc2)n1CCCl
3. C=CCN1COc2c(cc3c4c(cccc24)C(=O)O3)C1

["> 100 µM", "> 100 µM", "64.9 µM"]

Provide TGI values for the following items, in order.
1. N/C(=N/N=C/c1ccccc1)N/N=C\c1ccccc1
2. CCOC(=O)C(Cc1cn(C(C)=O)c2ccccc12)P(=O)(OCC)OCC (centres undefined)
3. C=C1CCCC(C)(C)C1CCC1(C)CCC(C(C)C(=O)OC)OO1 (centres undefined)
4. N#Cc1cc([N+](=O)[O-])ccc1NC(=O)/C(=N\NC(=O)c1ccncc1)C(c1cnc2ccc([N+](=O)[O-])cc2n1)[N+](=O)[O-] (centres undefined)
5. Clc1ccc(CCn2cncn2)cc1
6. [N-]=[N+]=Nc1c(Cl)c(Cl)nc2ccccc12

47.3 µM
> 100 µM
> 25 µM
22.9 µM
> 100 µM
> 100 µM

Give TGI for all compounds that follow.
1. CCN(CC)C1CCC(C2c3cc4c(cc3OC(N3CCOCC3)C2C)OCO4)CC1 (centres undefined)
2. O=C(NNC1=NCCCCN1)Nc1ccc(Cl)cc1
3. CC(=O)Oc1ccc2cc(Oc3ccc(Cl)c(Cl)c3)c(=O)oc2c1
4. CC/C(=C(/c1ccc(O)cc1)c1ccc(OCCN)cc1)c1ccccc1
5. c1ccc(C(NC2=NCCO2)c2ccccc2)cc1

1: > 68.2 µM; 2: 72.4 µM; 3: > 100 µM; 4: 9.07 µM; 5: > 10 µM

For every item in the list below, what is its measured TGI?
1. Cn1ncc2c(Nc3cccc(Cl)c3)nc(Nc3cccc(Cl)c3)nc21
2. C#CCN(Cc1nc2cc(C(F)(F)F)ccc2nc1-c1ccccc1)c1ccc(C)cc1
3. OCCCNc1ccnc2cc(Cl)ccc12
4. COc1ccc(-c2c3c(n(C4OC(COC(C)=O)C(OC(C)=O)C(OC(C)=O)C4OC(C)=O)c(=S)c2C#N)CCC3)cc1 (centres undefined)
5. COc1ccc2cc(C(=O)/C=C/c3ccc(N(C)C)cc3)ccc2c1

["47.4 µM", "> 79.9 µM", "> 100 µM", "> 100 µM", "> 100 µM"]

Lab note: each compound below needs its TGI filled in.
1. O=C1[C@@H]2C(c3ccccc3[N+](=O)[O-])=[N+](c3ccccc3)O[C@@H]2C(=O)N1c1ccc(Cc2ccc(N3C(=O)[C@H]4C(c5ccccc5[N+](=O)[O-])=[N+](c5ccccc5)O[C@H]4C3=O)cc2)cc1
2. N#CC1=C(c2ccccc2)C(=C2Nc3ccccc3N2)C2S/C(=C\c3ccccc3)C(=O)N2C1=N (centres undefined)
3. CC1(Br)CC2OC3(Br)C=CC(C)(O)C2(CC1=O)C3(C)C (centres undefined)
4. O=c1[nH]c(=O)c2cc3cc(C4CC(O)C(CO)O4)ccc3cc2[nH]1 (centres undefined)
5. O=C(CCCN1CCC2(CC1)CC(=O)N(N1CCOCC1)C2=O)c1ccc(F)cc1
6. Cc1nc(N2N=C(c3ccc(Cl)cc3)CCC2=O)sc1[N+](=O)[O-]
7. N#CCCCCCOCCOCCOCCOCCOCCCCCC#N
8. CN(C)CCNC(=O)c1cccc2c(NC(CS)C(=O)O)c3ccccc3[n+](C)c12 (centres undefined)

["> 100 µM", "7.79 µM", "> 100 µM", "> 100 µM", "> 100 µM", "> 100 µM", "> 100 µM", "> 100 µM"]

Each of the following entries comes with a recorded value; kindly state TGI for each.
1. COC(=O)C1=CO[C@@H](OC2OC(CO)C(O)C(O)C2O)[C@H]2[C@@H](C)[C@@H](O)[C@@H](O)[C@@H]12 (some centres undefined)
2. O=C1C=CC(=O)c2c1ccc1c3ccccc3n(-c3ccccc3)c21
3. COc1ccc(-c2cc(-c3ccc(O)cc3O)c(C#N)c(=O)[nH]2)cc1

1: > 100 µM; 2: 2.89 µM; 3: 55.1 µM
